Listing: pIC50 of selected compounds
- target.or.system: α4β1 integrin (Homo sapiens, UniProt P05556+P13612)
- Construct: a T-cell line, Jurkat, known to express the α4β1 integrin
- Sequence (P13612 34-1032): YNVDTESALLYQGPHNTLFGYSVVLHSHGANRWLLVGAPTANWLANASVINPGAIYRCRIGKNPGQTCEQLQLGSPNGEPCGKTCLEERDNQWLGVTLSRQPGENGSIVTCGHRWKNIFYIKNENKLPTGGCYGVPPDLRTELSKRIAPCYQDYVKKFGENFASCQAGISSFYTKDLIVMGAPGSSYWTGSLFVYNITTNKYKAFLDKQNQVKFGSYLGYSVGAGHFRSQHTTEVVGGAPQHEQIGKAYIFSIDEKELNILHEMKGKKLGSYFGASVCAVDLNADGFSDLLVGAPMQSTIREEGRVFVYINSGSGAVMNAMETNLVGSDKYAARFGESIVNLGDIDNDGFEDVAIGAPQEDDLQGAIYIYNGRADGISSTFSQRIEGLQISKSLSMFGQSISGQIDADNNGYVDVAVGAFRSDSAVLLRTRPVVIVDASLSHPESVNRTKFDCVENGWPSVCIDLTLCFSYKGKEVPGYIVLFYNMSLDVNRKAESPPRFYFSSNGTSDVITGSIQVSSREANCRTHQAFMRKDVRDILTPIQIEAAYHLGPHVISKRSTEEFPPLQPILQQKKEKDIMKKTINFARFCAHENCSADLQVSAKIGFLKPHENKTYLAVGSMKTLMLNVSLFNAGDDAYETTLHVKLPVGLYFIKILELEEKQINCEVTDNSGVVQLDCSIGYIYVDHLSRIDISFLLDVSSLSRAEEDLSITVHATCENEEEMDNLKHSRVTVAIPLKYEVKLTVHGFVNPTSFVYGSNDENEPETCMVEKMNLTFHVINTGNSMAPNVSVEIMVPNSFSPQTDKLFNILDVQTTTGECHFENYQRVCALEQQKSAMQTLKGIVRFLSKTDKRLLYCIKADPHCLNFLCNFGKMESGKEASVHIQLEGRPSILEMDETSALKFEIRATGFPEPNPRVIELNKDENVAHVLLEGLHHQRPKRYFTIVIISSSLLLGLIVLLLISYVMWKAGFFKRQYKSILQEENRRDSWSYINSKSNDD
- Sequence (P05556 21-798): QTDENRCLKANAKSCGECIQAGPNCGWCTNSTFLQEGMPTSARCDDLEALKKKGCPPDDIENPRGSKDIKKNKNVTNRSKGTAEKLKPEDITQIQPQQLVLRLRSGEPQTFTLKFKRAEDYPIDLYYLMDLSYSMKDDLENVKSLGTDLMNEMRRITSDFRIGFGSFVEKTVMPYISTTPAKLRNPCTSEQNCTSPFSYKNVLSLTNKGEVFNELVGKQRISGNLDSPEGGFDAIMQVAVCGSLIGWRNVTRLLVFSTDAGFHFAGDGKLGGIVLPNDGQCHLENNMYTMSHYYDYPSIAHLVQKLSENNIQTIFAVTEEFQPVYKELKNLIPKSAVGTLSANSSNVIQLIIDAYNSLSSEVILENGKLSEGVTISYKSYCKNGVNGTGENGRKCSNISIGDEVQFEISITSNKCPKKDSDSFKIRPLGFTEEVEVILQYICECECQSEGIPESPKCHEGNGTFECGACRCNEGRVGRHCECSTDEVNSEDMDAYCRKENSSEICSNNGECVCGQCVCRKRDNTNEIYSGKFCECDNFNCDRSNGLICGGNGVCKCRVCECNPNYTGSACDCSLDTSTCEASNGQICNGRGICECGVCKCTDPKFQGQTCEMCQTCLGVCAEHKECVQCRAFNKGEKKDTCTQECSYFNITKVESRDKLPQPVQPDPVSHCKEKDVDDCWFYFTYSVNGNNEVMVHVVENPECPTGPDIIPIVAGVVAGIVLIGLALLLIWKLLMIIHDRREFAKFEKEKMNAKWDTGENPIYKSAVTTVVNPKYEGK
- protocol.text: Jurkat-Endothelial Cell Adhesion Assay (Jurkat EC)
- condition.summary: Jurkat cell adhesion to IL-1 stimulated endothelial cell monolayers
pIC50: −log10 of the molar value.
quantity: pIC50

1. CC(=O)[C@H]1C[C@H](C(=O)N[C@@H](Cc2ccc(NC(=O)c3c(Cl)cccc3Cl)cc2)C(=O)O)C1(C)C [Example 96] ... ≥ 6.10
2. O=C(NC1CCCCC1C(=O)NC(Cc1ccc(NC(=O)c2c(Cl)cccc2Cl)cc1)C(=O)O)c1cc(C(=O)O)[nH]n1 (stereo not shown) [Example 83] ... ≥ 6.10
3. CC1(C)[C@H](C(=O)O)C[C@H]1C(=O)N[C@@H](Cc1ccc(NC(=O)c2c(Cl)cccc2Cl)cc1)C(=O)O [Example 102] ... ≥ 6.10
4. O=C(O)/C=C/C(=O)Nc1cccc(C(=O)N[C@@H](Cc2ccc(NC(=O)c3c(Cl)cccc3Cl)cc2)C(=O)O)c1 [Example 37] ... 5.00 to 5.30
